system: P. aeruginosa CIP107051; assay: MIC of ceftazidime (CAZ) at fixed concentration of compound (synergy), broth microdilution; type: cell-based; details: strain CIP107051; MIC of CAZ, compound fixed at 4 μg/mL
recorded_metric: MIC combination of CAZ and compounds of the invention at 4 μg/mL (µg/mL)
Kindly answer with a numeric value in µg/mL, unit omitted.

These solved cases illustrate the format of a correct answer.
NCCONC(=O)c1cnn(C2=CC3CN(C2)C(=O)N3OS(=O)(=O)[O-])c1.O=C(O)C(F)(F)F.[Na+] (centres unmarked) :: 4
NC(=O)c1nn(C2=CC3CN(C2)C(=O)N3OS(=O)(=O)[O-])cc1F.[Na+] (centres unmarked) :: 4
N#Cc1ccn(C2=CC3CN(C2)C(=O)N3OS(=O)(=O)[O-])n1.[Na+] (centres unmarked) :: 8
NCc1cn(C2=CC3CN(C2)C(=O)N3OS(=O)(=O)[O-])nn1.O=C(O)C(F)(F)F.[Na+] (centres unmarked) :: 4
NCc1ccn(C2=CC3CN(C2)C(=O)N3OS(=O)(=O)[O-])n1.O=C(O)C(F)(F)F.[Na+] (centres unmarked) :: 4
O=C1N2CC(n3cc(-c4nccs4)nn3)=CC(C2)N1OS(=O)(=O)[O-].[Na+] (centres unmarked) :: 8

Would you kindly look at the next entry?
Value wanted: MIC combination of CAZ and compounds of the invention at 4 μg/mL (P. aeruginosa CIP107051) of entry O=C1N2CC(n3ccc(-c4ncco4)n3)=CC(C2)N1OS(=O)(=O)[O-].[Na+] (centres unmarked)
8
